- Species on record: Oryctolagus cuniculus
- PROCEDURE DETAILS: Effect on intraocular pressure in right eye was tested by using transition ocular hypertension model at basal condition; note: test concentration or dose not given here
- Assay type: functional
REPORTED METRIC: IOP (mmHg)
Number only, in mmHg; omit the unit.

Record excerpt, results attached:
[
  {
    "COMPOUND": "NS(=O)(=O)c1nnc(NC(=O)CCCCC(=O)O)s1",
    "IOP, mmHg": 16.83
  },
  {
    "COMPOUND": "COC(=O)CCC(=O)/N=c1/sc(S(N)(=O)=O)nn1C",
    "IOP, mmHg": 15.5
  },
  {
    "COMPOUND": "CC(C)(C)NC[C@H](O)COc1nsnc1N1CCOCC1 [TIMOLOL]",
    "IOP, mmHg": 18.53
  },
  {
    "COMPOUND": "CCCCCOC(=O)CCC(=O)Nc1nnc(S(N)(=O)=O)s1",
    "IOP, mmHg": 15.83
  },
  {
    "COMPOUND": "NS(=O)(=O)c1nnc(NC(=O)CCC(=O)O)s1",
    "IOP, mmHg": 15.67
  }
]

### Prompt # return recorded IOP for entry `CCOC(=O)CCC(=O)Nc1nnc(S(N)(=O)=O)s1`
### Response 15.33

### Prompt Name the recorded IOP of the item `COC(=O)CC(=O)Nc1nnc(S(N)(=O)=O)s1` in your answer.
### Response 16.17

Hello, the source for this data is ChEMBL document CHEMBL1125487, in case you need it.
